# measurement target: heIF4E3 (Homo sapiens, UniProt Q8N5X7)
# Sequence (Q8N5X7 whole entry): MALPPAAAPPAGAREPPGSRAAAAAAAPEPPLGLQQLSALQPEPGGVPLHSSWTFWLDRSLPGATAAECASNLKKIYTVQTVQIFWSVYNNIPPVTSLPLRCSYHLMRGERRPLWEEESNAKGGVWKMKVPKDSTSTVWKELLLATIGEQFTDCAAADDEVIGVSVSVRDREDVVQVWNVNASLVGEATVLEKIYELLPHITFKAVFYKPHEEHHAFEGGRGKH
measured quantity: Kd (nM)
Respond numerically; units are nM and should not be typed.

Query: If you can, please state the reported Kd value of `CO[C@@H]1[C@H](OP(=O)(O)OC[C@H]2O[C@@H](n3cnc4c(=O)[nH]c(N)nc43)[C@H](O)[C@@H]2O)[C@@H](COP(=O)(O)OP(=O)(O)OP(=O)(O)OC[C@H]2O[C@@H](n3c[n+](C)c4c(=O)[nH]c(N)nc43)[C@H](O)[C@@H]2O)O[C@H]1n1cnc2c(N)ncnc21` .
Reply: 153

Query: If you can, please state the reported Kd value of `C[n+]1cn([C@@H]2O[C@H](COP(=O)(O)OP(=O)(O)OP(=O)(O)O)[C@@H](O)[C@H]2O)c2nc(N)[nH]c(=O)c21` .
Reply: 129
